Data origin: patent US20260048051A1

Assay: Plasma and tissue distribution in SD rats
Type: in vivo
Conditions: male, Sprague-Dawley, rat, bladder, M SD rat, Bladder; read-out: AUClast
EXPERIMENTAL_ENDPOINT: AUC(0-t) (ng·h/mL)
Report the figure in ng·h/mL without appending any unit label.

Field request: AUC(0-t) | item: C[C@@H](c1ccc(Nc2cc(Nc3ncc(F)cc3S(C)(=O)=O)ncn2)nc1)N1CC2(COC2)C1 [Compound 2]
36200

###

Experiment: Plasma and tissue distribution in SD rats
Type: in vivo
Settings: female, Sprague-Dawley, rat, ovaries, oral, 10 mg/kg, SD rat, Ovaries; read-out: Tissue/Plasma Ratio (AUCinf)
EXPERIMENTAL_ENDPOINT: Kp
Lab note: jot the number down without any unit.

Field request: Kp | item: C[C@@H](c1ccc(Nc2cc(Nc3ncccc3S(C)(=O)=O)ncn2)nc1)N1CC2(COC2)C1 [Compound 1]
1.4
